Listed here: items and their measured melting point.
Counter-ions that a name gives are not always drawn.

Examples from the recorded data:
>  <compound>
O=C1NC(=O)c2ccc(Br)cc2/C1=C/Nc1ccc(N2CCC(N3CCCC3)CC2)nc1

>  <experimental.value>
214 to 215 °C

$$$$
>  <compound>
CN1CCN(c2ccc(CN/C=C3\C(=O)NC(=O)c4ccc(I)cc43)cc2O)CC1

>  <experimental.value>
180 to 181 °C

$$$$
>  <compound>
O=C1NC(=O)c2ccc(Br)cc2/C1=C/Nc1ccc(CCN2CCCC2)cc1

>  <experimental.value>
212 to 214 °C (dec.)

$$$$
>  <compound>
COC[C@@H]1CCCN1c1ccc(CN/C=C2\C(=O)NC(=O)c3ccc(I)cc32)cc1O

>  <experimental.value>
120 to 121 °C

$$$$
>  <compound>
CCCOc1ccc(CN/C=C2\C(=O)NC(=O)c3ccc(-c4ccc(F)cc4)cc32)cc1O

>  <experimental.value>
194 to 195 °C

$$$$

Inquiry: Given the compound COc1ccc(CN/C=C2\C(=O)NC(=O)c3ccc(Cl)cc32)cc1O (as salt: hydrochloride) , write its reported melting point.
Reply text: 265 to 266 °C

Inquiry: Given the compound O=C1NC(=O)c2ccc(-c3ccsc3)cc2C1=NNc1ccc(CN2CCCCC2)cc1 , write its reported melting point.
Reply text: 164 to 168 °C (dec.)

Inquiry: Given the compound O=C1NC(=O)c2ccc(-c3ccc(F)cc3)cc2/C1=C/Nc1ccc(CN2CCCC2)cc1 , write its reported melting point.
Reply text: 152 to 153 °C

Inquiry: Given the compound CN1CCN(c2ccc(N/C=C3\C(=O)NC(=O)c4ccc(C(=O)N(C)C)cc43)cc2)CC1 , write its reported melting point.
Reply text: > 300 °C

Inquiry: Given the compound O=C(O)CCCN/C=C1\C(=O)NC(=O)c2ccc(-n3cccc3)cc21 , write its reported melting point.
Reply text: 230 to 240 °C (dec.)

Inquiry: Given the compound C[C@@H]1CN(c2cncc(N/C=C3\C(=O)NC(=O)c4ccc(-c5ccoc5)cc43)c2)C[C@H](C)N1 , write its reported melting point.
Reply text: 175 to 176 °C

Inquiry: Given the compound COc1ccc(CN/C=C2\C(=O)NC(=O)c3ccc(-n4cccc4)cc32)cc1O , write its reported melting point.
Reply text: 252 to 253 °C

Inquiry: Given the compound O=C1NC(=O)c2ccc(Br)cc2/C1=C/NCc1ccc(NC(=O)C2CC2)c(OC(=O)C2CC2)c1 , write its reported melting point.
Reply text: 245 to 246 °C

Inquiry: Given the compound C[C@@H]1CN(c2ccc(N/C=C3\C(=O)NC(=O)c4ccc(-c5ccc(F)cc5)cc43)cc2)C[C@H](C)N1 (as salt: sodium) , write its reported melting point.
Reply text: 193 to 194 °C

Inquiry: Given the compound CN1CCN(c2ccc(N/C=C3\C(=O)NC(=O)c4ccc(-n5cccc5)cc43)cc2F)CC1 , write its reported melting point.
Reply text: 206 to 207 °C

Inquiry: Given the compound COC(=O)Nc1ccc(CN/C=C2\C(=O)NC(=O)c3ccc(Br)cc32)cc1OC(=O)OC , write its reported melting point.
Reply text: 179 to 180 °C

* * *

system: MCF-7; assay: Cytotoxicity assay (SRB), MCF-7; type: cell-based; settings: Homo sapiens, MCF7, 72 h, MCF-7 cells, 3 days, SRB; read-out: In Vitro Cellular Activity IC50 MCF-7
Listed here: items and their measured pIC50.
pIC50 field: float, defined as -log10 of concentration (mol/L).

Inquiry: Given the molecule O=C1NC(=O)c2ccc(-c3ccco3)cc2/C1=C/NCc1cc(O)ccc1I , write its reported pIC50.
Reply text: 6.00

Inquiry: Given the molecule O=C1NC(=O)c2ccc(-c3ccc4c(c3)OCO4)cc2C1=CNCc1ccc(O)c(O)c1 , write its reported pIC50.
Reply text: 4.30

Inquiry: Given the molecule O=C1NC(=O)c2ccc(-c3cc4ccccc4s3)cc2C1=CNCc1ccc(O)c(O)c1 , write its reported pIC50.
Reply text: 5.20

Inquiry: Given the molecule Cc1ncsc1C=Cc1ccc2c(c1)C(=CNCc1ccc(S(N)(=O)=O)cc1)C(=O)NC2=O , write its reported pIC50.
Reply text: 4.39

Inquiry: Given the molecule CN(C)CCOc1ccc(N/C=C2\C(=O)NC(=O)c3ccc(Br)cc32)cc1 , write its reported pIC50.
Reply text: 5.17

Inquiry: Given the molecule O=C1NC(=O)c2ccc(-c3ccco3)cc2/C1=C/NCc1ccc(-c2ccc(F)cc2)c(O)c1 , write its reported pIC50.
Reply text: 5.85

Inquiry: Given the molecule CC(C)N1CCN(c2ccc(N/C=C3\C(=O)NC(=O)c4ccc(-c5ccoc5)cc43)nc2)CC1 , write its reported pIC50.
Reply text: 5.64

Inquiry: Given the molecule CN(C)CC1CCCN1c1ccc(N/C=C2\C(=O)NC(=O)c3ccc(I)cc32)cc1F (stereo not shown) , write its reported pIC50.
Reply text: 5.37

Inquiry: Given the molecule CN1CCN(c2ccc(NC=C3C(=O)NC(=O)c4ccc(-c5ccccc5Cl)cc43)cc2)CC1 , write its reported pIC50.
Reply text: 5.55

Inquiry: Given the molecule O=C1NC(=O)c2ccc(I)cc2/C1=C/NCc1ccc(-c2ccccc2)c(O)c1 , write its reported pIC50.
Reply text: 6.06

Inquiry: Given the molecule CC(C)N1CCN(c2ccc(N/C=C3\C(=O)NC(=O)c4ccc(I)cc43)cn2)CC1 , write its reported pIC50.
Reply text: 5.24

Inquiry: Given the molecule O=C1NC(=O)c2ccc(I)cc2/C1=C/Nc1ccc(C2CCCN2CCO)cc1 (stereo not shown) , write its reported pIC50.
Reply text: 5.62

Inquiry: Given the molecule CCN1CCN(c2ccc(N/C=C3\C(=O)NC(=O)c4ccc(I)cc43)cc2)CC1 , write its reported pIC50.
Reply text: 5.57

* * *

system: BT474; test: Cytotoxicity assay (SRB), BT474; format: cell-based; conditions: Homo sapiens, BT-474, 144 h, BT474 cells, SRB, 6 days; read-out: In Vitro Cellular Activity IC50 BT474
readout: pIC50
pIC50 field: float, defined as -log10 of concentration (mol/L).

Examples from the recorded data:
>  <smiles.structure>
O=C1NC(=O)c2ccc(Br)cc2C1=CNc1ccc(-c2ccncc2)cc1

>  <pIC50>
4.73

$$$$
>  <smiles.structure>
O=C1NC(=O)c2ccc([N+](=O)[O-])cc2/C1=C/Nc1ccc(CN2CCCCC2)cc1

>  <pIC50>
5.40

$$$$
>  <smiles.structure>
COc1c(O)cc(CN/C=C2\C(=O)NC(=O)c3ccc(Br)cc32)cc1O

>  <pIC50>
4.89

$$$$

Please find the next molecule below.
Inquiry: Given the molecule COc1cc2c(cc1-c1ccoc1)/C(=C/Nc1ccc(N3CCN(C)CC3)cc1)C(=O)NC2=O , write its reported pIC50.
Reply text: 5.68

* * *

molecular target: cyclin D1/cdk 4 enzyme (Homo sapiens); construct: made in house; host or cells: Sf9 insect cells, recombinant baculovirus; experiment: CDK4 ELISA kinase assay (phospho-Rb ser 795 detection); format: biochemical; conditions: In Vitro Enzyme Assays, 200 μM ATP, read-out: CDK4 IC50
Sequence (P11802 whole entry, species assumed): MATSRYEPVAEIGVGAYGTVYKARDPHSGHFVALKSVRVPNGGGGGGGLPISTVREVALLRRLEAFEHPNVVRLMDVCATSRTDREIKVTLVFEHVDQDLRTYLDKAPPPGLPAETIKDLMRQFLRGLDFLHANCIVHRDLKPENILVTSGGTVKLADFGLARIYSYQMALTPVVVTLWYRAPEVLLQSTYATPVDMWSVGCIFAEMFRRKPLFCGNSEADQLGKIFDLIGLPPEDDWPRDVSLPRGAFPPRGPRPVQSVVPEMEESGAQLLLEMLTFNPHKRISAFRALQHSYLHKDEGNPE
Sequence (P24385 whole entry partner, species assumed): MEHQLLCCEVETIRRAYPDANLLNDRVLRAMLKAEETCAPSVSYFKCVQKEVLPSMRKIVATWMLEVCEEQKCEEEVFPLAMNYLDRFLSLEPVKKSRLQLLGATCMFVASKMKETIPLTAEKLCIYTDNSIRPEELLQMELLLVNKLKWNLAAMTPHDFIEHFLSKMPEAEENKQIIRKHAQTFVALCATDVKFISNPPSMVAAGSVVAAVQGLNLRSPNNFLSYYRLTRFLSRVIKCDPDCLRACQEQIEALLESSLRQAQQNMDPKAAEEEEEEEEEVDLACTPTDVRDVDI
readout: IC50 (nM)

>  <compound>
CC(=O)Nc1ccc(CN/C=C2\C(=O)NC(=O)c3ccc(I)cc32)cc1O

>  <IC50 (nM)>
30

$$$$
>  <compound>
COC[C@H]1CCCN1Cc1ccc(N/C=C2\C(=O)NC(=O)c3ccc(-c4ccoc4)cc32)cc1

>  <IC50 (nM)>
200

$$$$
>  <compound>
O=C1CC[C@@H](CN/C=C2\C(=O)NC(=O)c3ccc(I)cc32)N1 (stereo in doubt)

>  <IC50 (nM)>
2100

$$$$

(1) CCCOc1ccc(CN/C=C2\C(=O)NC(=O)c3ccc(Br)cc32)cc1C(=O)O
(2) O=C1NC(=O)c2ccc(I)cc2/C1=C/NCc1ccc(OC(F)F)c(O)c1
Inquiry: When 1 and 2 are compared, which has the higher number for IC50? // output: label of the selected item
Reply text: 1
(1: 1900 nM, 2: 8 nM)

(P) CN(C)C[C@@H]1CCCN1Cc1ccc(N/C=C2\C(=O)NC(=O)c3ccc(I)cc32)cc1
(Q) CN1CCC(N(C)c2ccc(N/C=C3\C(=O)NC(=O)c4ccc(Br)cc43)cc2)C1 (stereo not shown)
Inquiry: When P and Q are compared, which has the higher number for IC50? // output: label of the selected item
Reply text: Q
(Q: 2000 nM, P: 1400 nM)

(I) CCCOc1ccc(CN/C=C2\C(=O)NC(=O)c3ccc(NC(=O)c4ccco4)cc32)cc1O
(II) C=CCN1CCCC1c1ccc(N/C=C2\C(=O)NC(=O)c3ccc(I)cc32)cc1 (stereo not shown)
Inquiry: When I and II are compared, which has the higher number for IC50? // output: label of the selected item
Reply text: I
(I: 12300 nM, II: 770 nM)
